Catalogue of compounds with associated inhibition
target: Glucose transporter (Leishmania mexicana) (UniProt O61059); experiment: ST_JUDE_LEISH: Cytotoxicity at 2uM final concentration against transgenic Leishmania Mexicana promastigotes LmGT2 that are glucose transport deficient and complemented with the L. Mexicana glucose transporter 2. Activity is measured by DNA content using SYBR green in vitro; assay type: functional
parameter-measured: inhibition (%)

{"columns": ["molecular-string", "measured"],
 "data": [
  ["COc1ccccc1C(=O)N1CCN(Cc2cccs2)CC1", 9.06],
  ["CC(C)(Oc1c(C2CCN(CCCCNC(=O)c3ccc(-c4ccc(Cl)cc4)cc3)CC2)ccc2c1CCCC2)C(N)=O", -1.84],
  ["Cc1ccc(NC(=O)N2CCN(CCCCCNC(=O)/C=C/c3ccc(Cl)c(Cl)c3)CC2)cc1C", 6.33],
  ["CC(C)CCNCc1ccc(OCc2cccc(COc3ccc(CNCCC(C)C)cc3I)c2)c(I)c1", -0.23],
  ["Cc1cc(OCCCN2CCC(NS(=O)(=O)c3ccc(C(F)(F)F)cc3)CC2)c2ccccc2n1", 0.63],
  ["COc1ccccc1C1CCN(CCN2CCC(NC(=O)c3ccc(-c4ccc(C#N)cc4)cc3)CC2)CC1", 1.89],
  ["O=C(/C=C/c1ccc(Cl)cc1)NCCCCCN1CCCN(C(=O)Nc2cccc(Cl)c2)CC1", -1.25],
  ["CO/C(=C\\C=C/c1cc2cc(Cl)c(Cl)cc2[nH]1)C(=O)NC1CC(C)(C)N(C)C(C)(C)C1", 5.19],
  ["CCOc1c(CNCCCCCCNCc2ccc3ccccc3c2OCC)ccc2ccccc12", 1.99]
]}

Entry source: ChEMBL document CHEMBL3433997
